System: Escherichia coli TOP10
Assay: shrunken log2 fold change of peptide-encoding DNA abundance (4.5 h post-induction vs induction); higher = less antimicrobial activity (less host growth inhibition)
Details: time post-induction: 4.5 h; library: site-saturation at positions 5, 18, 19, 20
OBSERVATION TYPE: shrunken log2 fold change

In [3]: df
Out[3]:
           polymer_sequence  readout_value
 0  RRIRWRPPRLPRPRPRPNVDPRP        -0.0535
 1  RRIRFRPPRLPRPRPRPTQQPRP          0.312
 2  RRIRVRPPRLPRPRPRPNHKPRP         -0.292
 3  RRIRTRPPRLPRPRPRPKAEPRP      -0.000916
 4  RRIRGRPPRLPRPRPRPQIEPRP          0.462
 5  RRIRQRPPRLPRPRPRPHMMPRP         -0.526
 6  RRIRPRPPRLPRPRPRPKYPPRP         -0.672
 7  RRIRARPPRLPRPRPRPASSPRP           0.16
 8  RRIRRRPPRLPRPRPRPPVGPRP          0.366
 9  RRIRNRPPRLPRPRPRPIHKPRP         -0.377
10  RRIRSRPPRLPRPRPRPPYHPRP         -0.584
11  RRIRQRPPRLPRPRPRPTILPRP          0.939
12  RRIRWRPPRLPRPRPRPRQNPRP          0.448
13  RRIRARPPRLPRPRPRPTPMPRP          0.528
14  RRIRMRPPRLPRPRPRPRGCPRP           1.08
15  RRIRRRPPRLPRPRPRPAAMPRP          0.516

====

System: Escherichia coli TOP10
Assay: shrunken log2 fold change of peptide-encoding DNA abundance (4.5 h post-induction vs induction); higher = less antimicrobial activity (less host growth inhibition)
Conditions: time post-induction: 4.5 h; library: site-saturation at positions 5, 18, 19, 20
Recorded shrunken log2 fold change, one value per entry.
OBSERVATION TYPE: shrunken log2 fold change

In [3]: df
Out[3]:
           polymer_sequence  readout_value
 0  RRIRTRPPRLPRPRPRPYENPRP        -0.0748
 1  RRIRCRPPRLPRPRPRPGPKPRP            0.3
 2  RRIRFRPPRLPRPRPRPNVGPRP        -0.0278
 3  RRIRNRPPRLPRPRPRPVWIPRP         -0.111
 4  RRIRNRPPRLPRPRPRPAPEPRP          0.948
 5  RRIRYRPPRLPRPRPRPAQFPRP         0.0198
 6  RRIRDRPPRLPRPRPRPPIWPRP          0.305
 7  RRIRFRPPRLPRPRPRPGSRPRP          0.191
 8  RRIRWRPPRLPRPRPRPFYQPRP        -0.0811
 9  RRIRWRPPRLPRPRPRPISWPRP         0.0165
10  RRIRWRPPRLPRPRPRPNPQPRP        -0.0303
11  RRIRTRPPRLPRPRPRPRTCPRP           1.21
12  RRIRGRPPRLPRPRPRPRNWPRP           1.35
13  RRIRQRPPRLPRPRPRPQCWPRP        -0.0996
14  RRIRRRPPRLPRPRPRPGFAPRP          0.315
15  RRIRLRPPRLPRPRPRPRNMPRP        -0.0899
16  RRIRWRPPRLPRPRPRPHYNPRP         -0.772
17  RRIRKRPPRLPRPRPRPGEIPRP         0.0945
18  RRIRYRPPRLPRPRPRPMNIPRP         -0.124
19  RRIRRRPPRLPRPRPRPRTNPRP          0.482
20  RRIRQRPPRLPRPRPRPSVAPRP        -0.0735
21  RRIRARPPRLPRPRPRPNSWPRP          0.422
22  RRIRARPPRLPRPRPRPMKLPRP         0.0594
23  RRIRFRPPRLPRPRPRPTTPPRP          0.352
24  RRIRVRPPRLPRPRPRPAIHPRP          -0.23
25  RRIRMRPPRLPRPRPRPCMSPRP       -0.00161
26  RRIRLRPPRLPRPRPRPKMFPRP         0.0156
27  RRIRYRPPRLPRPRPRPHMKPRP         -0.489
28  RRIRVRPPRLPRPRPRPFWIPRP         -0.182
29  RRIRCRPPRLPRPRPRPGVTPRP         -0.175
30  RRIRERPPRLPRPRPRPYVPPRP        -0.0961
31  RRIRKRPPRLPRPRPRPRWPPRP          0.528
32  RRIRCRPPRLPRPRPRPWATPRP        0.00822
33  RRIRCRPPRLPRPRPRPGPEPRP          0.473
34  RRIRMRPPRLPRPRPRPGFPPRP          0.446
35  RRIRERPPRLPRPRPRPHLEPRP        -0.0328
36  RRIRHRPPRLPRPRPRPHEWPRP        0.00275
37  RRIRKRPPRLPRPRPRPDAPPRP           1.46
38  RRIRSRPPRLPRPRPRPINMPRP         -0.928
39  RRIRHRPPRLPRPRPRPAAAPRP          0.443
40  RRIRCRPPRLPRPRPRPTGPPRP          0.669
41  RRIRFRPPRLPRPRPRPGAQPRP          0.247
42  RRIRLRPPRLPRPRPRPVASPRP        -0.0255
43  RRIRSRPPRLPRPRPRPLWKPRP          0.197
44  RRIRTRPPRLPRPRPRPLMAPRP         -0.031
45  RRIRTRPPRLPRPRPRPVETPRP          0.306
46  RRIRHRPPRLPRPRPRPTKPPRP         0.0121
47  RRIRLRPPRLPRPRPRPLLHPRP        -0.0703
48  RRIRWRPPRLPRPRPRPPASPRP          0.319
49  RRIRSRPPRLPRPRPRPGCAPRP           0.46
50  RRIRTRPPRLPRPRPRPDSVPRP        -0.0144
51  RRIRFRPPRLPRPRPRPRMYPRP         -0.151
52  RRIRRRPPRLPRPRPRPMHGPRP          0.144

====

Tested on: Escherichia coli TOP10
Experiment: shrunken log2 fold change of peptide-encoding DNA abundance (4.5 h post-induction vs induction); higher = less antimicrobial activity (less host growth inhibition)
Conditions: time post-induction: 4.5 h; library: site-saturation at positions 5, 18, 19, 20
Measured shrunken log2 fold change accompanies every entry in the list below.
OBSERVATION TYPE: shrunken log2 fold change

          polymer_sequence  readout_value
0  RRIRKRPPRLPRPRPRPKDRPRP          0.088
1  RRIRSRPPRLPRPRPRPMVRPRP        0.00927
2  RRIRFRPPRLPRPRPRPKWKPRP        -0.0366

====

In this section we review reported shrunken log2 fold change values for a set of sequences.
Test system: Escherichia coli TOP10;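 note: peptides expressed intracellularly from a pBAD plasmid library in pooled LB shake-flask culture, induced with 0.3% L-arabinose, DNA abundance read by NGS, three biological replicates, DESeq2 with apeglm shrinkage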
Assay: shrunken log2 fold change of peptide-encoding DNA abundance (4.5 h post-induction vs induction); higher = less antimicrobial activity (less host growth inhibition)
Settings: time post-induction: 4.5 h; library: site-saturation at positions 5, 18, 19, 20
OBSERVATION TYPE: shrunken log2 fold change

           polymer_sequence  readout_value
 0  RRIRARPPRLPRPRPRPMIEPRP          0.314
 1  RRIRARPPRLPRPRPRPDPRPRP          0.254
 2  RRIRCRPPRLPRPRPRPDDQPRP           0.23
 3  RRIRQRPPRLPRPRPRPARGPRP          0.126
 4  RRIRERPPRLPRPRPRPPSSPRP         0.0527
 5  RRIRMRPPRLPRPRPRPAKFPRP         0.0548
 6  RRIRNRPPRLPRPRPRPWLWPRP          0.165
 7  RRIRKRPPRLPRPRPRPGNLPRP         0.0368
 8  RRIRFRPPRLPRPRPRPYAVPRP         -0.419
 9  RRIRWRPPRLPRPRPRPLFIPRP         -0.353
10  RRIRPRPPRLPRPRPRPTHDPRP          0.258
11  RRIRHRPPRLPRPRPRPMTPPRP         0.0337
12  RRIRSRPPRLPRPRPRPGYGPRP        -0.0163
13  RRIRTRPPRLPRPRPRPQTCPRP         -0.176
14  RRIRNRPPRLPRPRPRPFCMPRP          -0.45
15  RRIRNRPPRLPRPRPRPYGCPRP         -0.146
16  RRIRRRPPRLPRPRPRPICPPRP        -0.0986
17  RRIRCRPPRLPRPRPRPNLNPRP         -0.575
18  RRIRWRPPRLPRPRPRPRKEPRP         0.0466
19  RRIRCRPPRLPRPRPRPVCHPRP         -0.294
20  RRIRMRPPRLPRPRPRPAWGPRP           0.81
